Values compiled from ChEMBL document CHEMBL1201862.

System: HCC 2998
Procedure details: NCI tumour cell line growth inhibition, 48 h
Active and inactive are the calls of the source. Cut-off read from the data, not from the text of the source: active = GI50 up to about 1.1 µM and inactive = higher.
Labels: active, inactive

{"columns": ["Compound", "Category label"],
 "data": [
  ["COc1ccc(CN2C(=O)C(=O)N(C)C2=O)c2ccccc12", "inactive"],
  ["CCCC(=O)NC1=C(NCC)C(=O)c2ccccc2C1=O", "inactive"],
  ["O=C1NC(Nc2ccccc2)=NC(C(F)(F)F)(C(F)(F)F)N1", "inactive"],
  ["O=C1N/C(=N/N=C/C(O)C(O)C(O)C(O)CO)N/C1=C\\c1c[nH]c2ccccc12 (stereo not given)", "inactive"],
  ["CC1=C/C(=N/N2C(=O)/C(=C/c3ccc(Cl)cc3)N=C2c2ccccc2)CC(C)(C)C1", "inactive"],
  ["O=C1NC(c2ccccc2)N=C2Oc3ccccc3C=C12 (stereo not given)", "active"],
  ["Cc1occc1/C(S)=N\\c1ccc(Cl)c(C(=O)OCC(F)(F)F)c1", "inactive"],
  ["COc1ccc2nc3cc(Cl)ccc3c(Nc3ccccc3-c3ccccc3Nc3c4ccc(Cl)cc4nc4ccc(OC)cc34)c2c1", "inactive"],
  ["O=C(C#Cc1ccccc1)NC/C=C/c1ccccc1", "inactive"],
  ["CCCCCCCCCCCCCCCCCCNc1ccn(C2OC(COP(=O)(O)OCC(COP(=O)(O)OCC3OC(n4cc(C)c(=O)[nH]c4=O)CC3N=[N+]=[N-])OCCCCCCCCCCCCCCCCCC)C(O)C2O)c(=O)n1 (stereo not given)", "inactive"]
]}

====

System: LXFL 529
Procedure details: NCI tumour cell line growth inhibition, 48 h
Calls of active or inactive are those of the source. No stated cut-off is given here; in the data, active = GI50 up to about 1.1 µM and inactive = higher.
Attribute measured: GI50

{"columns": ["Molecule", "Value reported"],
 "data": [
  ["Cc1ccc(NC(=O)CSc2nnc(Cc3ccccc3)o2)c(C)c1", "> 100 µM (inactive)"],
  ["CNC(=O)NCCCCC(NC(=O)OCc1ccccc1)C(=O)OCc1ccccc1 (stereo unspecified)", "32.1 µM (inactive)"],
  ["O=C1N(Cl)C(=O)C(c2ccc(Cl)cc2)(c2ccc(Cl)cc2)N1Cl", "63 µM (inactive)"],
  ["Cc1cc2c(c(C(N)=O)c1C)-c1cc(Cl)cc(Cl)c1C2=O", "> 100 µM (inactive)"],
  ["COc1ccc2nc(NC(=O)C(=O)C(C#N)c3ccc(CC#N)cc3)sc2c1 (stereo unspecified)", "> 100 µM (inactive)"],
  ["CCc1ccccc1NC(=O)C(=O)C(C#N)c1ccccc1Cl (stereo unspecified)", "> 100 µM (inactive)"]
]}

====

Tested on: SF-539
Procedure details: NCI tumour cell line growth inhibition, 48 h
Activity calls are given as the source filed them. No stated cut-off is given here; in the data, active = GI50 up to about 1.1 µM and inactive = higher.
Labels: active, inactive

{"columns": ["Compound", "Target system", "Category label"],
 "data": [
  ["S=C1NC(c2ccccc2)=NC(Cc2ccccc2)(c2ccccc2)N1c1ccccc1 (stereo unspecified)", "SF-539", "inactive"],
  ["O=C1N/C(=N/N=C/C(O)C(O)C(O)C(O)CO)N/C1=C\\c1c[nH]c2ccccc12 (stereo unspecified)", "SF-539", "inactive"],
  ["COc1ccc(/C=C2/C(=O)C(c3ccccc3)N(c3ccccc3)C2=O)cc1OC (stereo unspecified)", "SF-539", "inactive"],
  ["CC[C@@]1(OC(=O)CCC(=O)O)C(=O)OCc2c1cc1n(c2=O)Cc2cc3ccccc3nc2-1", "SF-539", "active"],
  ["COC(=O)C1(Cc2ccccc2)Cc2c(C)ccc(C)c2C1=O (stereo unspecified)", "SF-539", "inactive"],
  ["O=C(Cc1nc2ccc([N+](=O)[O-])cc2nc1O)C(=O)Nc1ccccc1[N+](=O)[O-]", "SF-539", "inactive"],
  ["O=C1C=C(C2OC(CO)C(O)C2O)C(=O)N1 (stereo unspecified)", "SF-539", "inactive"],
  ["COc1cccc2c1[C@]1(O)C(O)CCCC21 (stereo partly specified)", "SF-539", "inactive"],
  ["Cc1nc2nnc(C)n2c2c1C(=O)Nc1ccccc1N2", "SF-539", "inactive"],
  ["CCOC(=O)/C=C1\\Nc2ccccc2C(c2ccccc2)=NC1OC(C)=O (stereo unspecified)", "SF-539", "inactive"],
  ["Cn1c(=O)c2c(nc3[nH]c(=O)c(Br)cn32)n(C)c1=O", "SF-539", "inactive"],
  ["O=C(N/C(=C\\c1cc(Cl)ccc1Cl)c1nc2c(O)nc(S)nc2[nH]1)c1ccccc1", "SF-539", "inactive"],
  ["Cc1c(C(=O)/C=C/c2ccccc2[N+](=O)[O-])[n+]([O-])c2ccccc2[n+]1[O-]", "SF-539", "inactive"],
  ["CCOC(=O)c1cc(OC(=O)CC)c2c(OC)ccc(OC)c2c1", "SF-539", "inactive"],
  ["CC1=C/C(=N/N2C(=O)/C(=C/c3ccc(Cl)cc3)N=C2c2ccccc2)CC(C)(C)C1", "SF-539", "inactive"],
  ["CCOC(=O)/C=C/C(=O)O/C=C/[N+](=O)[O-]", "SF-539", "inactive"]
]}

====

System: ACHN
Procedure details: NCI tumour cell line growth inhibition, 48 h
Active and inactive are the calls of the source. Rule as the data show it: active = GI50 up to about 1.1 µM and inactive = higher.

{"columns": ["Compound", "GI50"],
 "data": [
  ["Cc1cc(Cl)ccc1NC(=O)CC1SC(NC(=O)c2ccccc2Cl)=NC1=O (stereo not given)", "16.9 µM (inactive)"],
  ["Cc1ccc(S(=O)(=O)CC2(Br)CCc3ccccc3C2=O)cc1 (stereo not given)", "19.8 µM (inactive)"],
  ["COC(=O)CC(c1cn(S(=O)(=O)c2ccc(C)cc2)c2ccccc12)C1C[C@@H](C(=O)OC)N(C(=O)OC(C)(C)C)C1=O (stereo not given in full)", "12.5 µM (inactive)"],
  ["CNC(=O)NCCCCC(NC(=O)OCc1ccccc1)C(=O)OCc1ccccc1 (stereo not given)", "19.1 µM (inactive)"],
  ["O=c1ccs[nH]1", "7.05 µM (inactive)"]
]}

====

Tested on: ACHN
Procedure details: NCI tumour cell line growth inhibition, 48 h
Calls of active or inactive are those of the source. No stated cut-off is given here; in the data, active = GI50 up to about 1.1 µM and inactive = higher.
# GI50 listing for each entry below

{"columns": ["Molecule", "GI50"],
 "data": [
  ["COc1ccc2cc(NC(=O)N/N=C\\c3ccc([N+](=O)[O-])cc3)ccc2c1", "37.6 µM (inactive)"],
  ["O=[N+]([O-])c1ccc(N/N=C/CC(O)(C(F)(F)F)C(F)(F)F)c([N+](=O)[O-])c1", "3.52 µM (inactive)"],
  ["c1cnc2c(c1)Nc1cnncc1S2", "> 100 µM (inactive)"],
  ["C/C(=C\\CNc1ncnc2c1ncn2CCC(=O)OC(C)(C)C)CO", "> 100 µM (inactive)"],
  ["COC(=O)[C@@H]1Cc2ccc(OC)c(c2)OCCC(=O)N1", "> 100 µM (inactive)"],
  ["Cc1ccc(C(=O)O)c(/C=C2\\Cc3ccc(C)cc3C2=O)c1", "55.2 µM (inactive)"],
  ["CCOC(=O)c1nc(SC)sc1NC(=O)c1ccc(OC)cc1", "47.8 µM (inactive)"],
  ["CCOC(=O)C(NC(=O)c1ccc(/N=N/N(C)C)cc1)C(C)C (stereo not given)", "> 100 µM (inactive)"],
  ["COC(=O)[C@H](Cc1ccccc1)NC(=O)c1ccc(CNC(=O)/C=C/c2cccc(Oc3ccccc3)c2)cc1", "16.4 µM (inactive)"],
  ["CCN(CC)c1nc(N(C)C)c2ccccc2n1", "27.9 µM (inactive)"],
  ["CC(=O)/C(=C/NC(=S)N/N=C1\\C(=O)Nc2ccccc21)C(=O)Nc1ccccc1C", "96.2 µM (inactive)"],
  ["c1ccc2c(c1)Sc1ccccc1N2CCCN1c2ccccc2Sc2ccccc21", "39.1 µM (inactive)"],
  ["C[C@H](CCCOS(C)(=O)=O)[C@H]1CC[C@H]2[C@@H]3CC[C@@H]4C[C@H](OS(C)(=O)=O)CC[C@]4(C)[C@H]3CC[C@]12C", "15.6 µM (inactive)"],
  ["CN1CCN(C)C1c1cccc(C2N(C)CCN2C)c1", "> 100 µM (inactive)"],
  ["Cn1c(=O)cc(/N=N\\c2ccc(Cl)c(Cl)c2)[nH]c1=O", "21.2 µM (inactive)"],
  ["N#Cc1ccc(Nc2cnc3cc(N)ccc3n2)cc1", "69 µM (inactive)"],
  ["COc1cc(-c2c(C(C)=O)c(-c3ccccc3)n(C3OC(COC(C)=O)C(OC(C)=O)C(OC(C)=O)C3OC(C)=O)c(=S)c2C#N)ccc1O (stereo not given)", "55.3 µM (inactive)"],
  ["Cc1cccc2c(O)c3c(O)cc(O)cc3nc12", "> 10 µM (inactive)"],
  ["CN(C)CCNC(=O)c1cccc2c(NC(CCC(N)=O)C(=O)O)c3ccccc3nc12 (stereo not given)", "3.37 µM (inactive)"],
  ["Cc1cc(C)nc(NS(=O)(=O)c2ccc(NN=c3c4ccccc4n(C)c4ccccc34)cc2)n1", "21.6 µM (inactive)"]
]}
